Test: yeast display, Sf9 membrane polyspecificity reagent, FACS + sequencing; frameworks hold sequencing errors
quantity-kind: polyreactivity (PSR sort gate)

Solved cases below.
# residues, quantity-kind, measured-value
data = [
    ("QVQLVESGGGLVQSGGSLRLSCCACGRIFYSYSMGRYRQAPGKDRELVAANTCRGGSTYYADSVKGRFTISRDNAKNPVYLQMIRLKPEDTAVSYCATSSHTPYYSYIVERIHYDYWGQGTQVTVSS", "polyreactivity (PSR sort gate)", "high polyreactivity"),
    ("QVQLVESGAGLVQAGGSLRLSCAASGSTFWYYAMGLYRQAPGKERELVAAITRDGNTYYADSVKGRFTISRDNAMNSFYLQMNSLKREDTAVYYCAAGFYLLGKYDYWGQGTQVTVSS", "polyreactivity (PSR sort gate)", "high polyreactivity"),
    ("QVQLVESGGGLVQAGGSLRLSCAASGSTYGIYAMGWYRQAPGKERELVAAITLRTDSTYYADSVKGRFTISRDNAKNTVYLQMNSLKPEVTAVYYCARRYRYGYDYWGQGTQVTVSS", "polyreactivity (PSR sort gate)", "low polyreactivity"),
    ("QVQLVESGGGLVQAGGSLRLSCAASGSIFVIYAMGWYRQAPGKERELVAAISRSGGRTYYADSVKGRFTISRDNAKNTVYLQMNSLKPEDTAVYYCAAEGSTYQGAPGVYYWGQGTQVTVSS", "polyreactivity (PSR sort gate)", "high polyreactivity"),
    ("QVQLVESGGGLVQAGGSLRLSCAASGRIFIYYAMGWDRQAPGKERELVAAISWGGGRTYYADSVKGRFTISRDNAKNTVYLQMNSLKPEDTAVYYCAAGVYTGQHEYDYWGQGTQVTVSS", "polyreactivity (PSR sort gate)", "low polyreactivity"),
]

For "QVQLVESGGGLVQAGGSLRLSCAASGITFGPYAMGWYRQAPGKERELVATISSSGGSTYYADSVKGRFTISRDNAKNTVYLQMNSLKPEDTAVYYCAAEYYVISSPSFYEYDYWGQGTQVTVSS" the sequence record lists polyreactivity (PSR sort gate) as low polyreactivity

Recorded polyreactivity (PSR sort gate) (sequence "QVHLVESGGGLVQAGGSLRLSCAASGSTFWYNAMRWYRQAPGKERELVASIDDIGGSTYYADSVKGRFTISRDNAKYTVYLQMNSLKPEDTAVYYCAKDYGSSYVTDSDYWGQATQVTVSS" ): low polyreactivity

The reported value for "QVQLVESGGGLVQAGGSLRLSSAASGRIFYGYTMGWYRQAPGKERELVAAITQSSGSTYYADSVKGRFTISRDNAKNTVYLQMNSLKPEDTAVYYCARDPGRRYSYTYDYWGQGTQVTVSS" in terms of polyreactivity (PSR sort gate) is low polyreactivity

// "QDQHVESGGGIVQAGGSLRLICAASGRTFANNAMGWYRQAPGKERELVAAISWSGGSTYYADSVKGRFTISRDNAKNTVYLQMNSLKPEDTAVYYCAADSPRYGGYGYWGQGTHVTVSS" : polyreactivity (PSR sort gate) value = low polyreactivity

Item: "QVQLGETRGGLVQAGGSLRLSCAASASIFAPYAMGGYRQAPGKERELVAAITWSGDSTYYADSVKGRFTISRDNAKYTVYLQMNSLKPEDTAVYYCATEEVYGQGNYWGQGTQVTVSS" | polyreactivity (PSR sort gate): low polyreactivity

Briefly, polyreactivity (PSR sort gate) measured for "QVQLVESGGGLVQAGGSLRLSCAASGSTFYTNVMGWYRQAPGKDRELVAAISYNSGSTSYADSVKGRFTISRDNAKNTVYLQMNSLKPEDTAVYYCAVRIRLRRARLSYDYWGQGTQVTVSS" : high polyreactivity
